assay: log P by HPLC on reversed phase columns (EEC directive 79/831 Annex V.A8); type: physicochemical; conditions: Table 1, formula (I); HPLC/LC-MS at pH 2.7, 0.1% formic acid in water / acetonitrile, gradient 10% to 95%

molecule	logP^[a]
CCC1OC(C)(C)c2cccc(NC(=O)c3cccnc3C(F)F)c21 (racemic) [Example 77]	2.39^[a]
Cc1ccc(NC(=O)c2cccnc2C(F)F)c2c1C(C)(C)CC2C (centres unmarked) [Example 11]	3.41^[a]
CCCC1CC(C)c2c(NC(=O)c3cccnc3C(F)F)cccc21 (centres unmarked) [Example 89]	3.79^[a]
CC1c2c(NC(=O)c3cccnc3C(F)F)cccc2C(C)(C)C1C (centres unmarked) [Example 33]	3.48^[a]
CC(C)C1OC(C)(C)c2cccc(NC(=O)c3cccnc3C(F)F)c21 (racemic) [Example 76]	2.73^[a]

----------
test system: Puccinia recondita; test: In vivo preventive test on Puccinia recondita (brown rust on wheat); conditions: dose 100 ppm; wheat, spray, graded 12 days after contamination vs control plants

molecule	Eff. %
CC(C)C1Cc2c(NC(=S)c3ccc(Cl)nc3C(F)F)cccc2C1(C)C (stereo not drawn) [Example 66]	98%
CCC1(CC)CC(C)c2c(NC(=O)c3ccc(Cl)nc3C(F)F)cccc21 (racemic) [Example 80]	94%
CCC1OC(C)(C)c2cccc(NC(=O)c3cc(C)cnc3C(F)F)c21 (racemic) [Example 73]	78%
CC(C)(C)CC1CCc2cccc(NC(=O)c3cccnc3C(F)F)c21 (stereo not drawn) [Example 90]	98%
CCC1(C)CC(C)c2c(NC(=O)c3cccnc3C(F)F)cccc21 (mixture of isomers) [Example 81]	100%
CCC1OC(C)(C)c2cccc(NC(=O)c3ccc(Cl)nc3C(F)F)c21 (racemic) [Example 74]	72%
